# Tested on: WPMY1-GM130-SQSTM1
# TEST DESCRIPTION: phenotypically active (imaging signature differs from DMSO and reproducible) at any of 0.3-9 uM (binary (1 = active, 0 = inactive)); higher = active
# COND: treatment time: 24 h
Structures can show the parent of a compound that is named as a salt.
For each entry below, report its phenotypically active value.
API note: the answer field is a bare number with no unit suffix.

Prompt line: Endpoint output: phenotypically active of FC(F)(F)c1ccc(/C=C/c2nc(COc3ccc(CCCCn4ccnn4)cc3)co2)cc1 . Value?
Response line: 0

Prompt line: Note, next up: COc1cc([C@@H]2c3cc4c(cc3[C@@H](O[C@@H]3O[C@@H]5CO[C@@H](c6cccs6)O[C@H]5[C@H](O)[C@H]3O)[C@H]3COC(=O)[C@H]23)OCO4)cc(OC)c1O [teniposide]
Response line: 1

Prompt line: Could you do the same for Cc1cc(C)nc(SCC(=O)Nc2ncc(Cc3cccc4ccccc34)s2)n1 , please?
Response line: 0

Prompt line: Quick one: C=C[C@H]1C[N@@]2CC[C@H]1C[C@@H]2[C@@H](O)c1ccnc2ccc(OC)cc12 [quinidine]
Response line: 0

Prompt line: How about C[C@H](NC(=O)[C@@H](O)c1cc(F)cc(F)c1)C(=O)N[C@@H]1C(=O)N(C)c2ccccc2-c2ccccc21 ?
Response line: 1

Prompt line: How about this compound: CC(CCc1ccc(O)cc1)NCCc1ccc(O)c(O)c1 (configuration not stated) [Dobutamine hydrochloride]
Response line: 1

Prompt line: Same lookup for Nc1cc(C(F)(F)F)c(-c2cc(N3CCOCC3)nc(N3CCOCC3)n2)cn1 [buparlisib] , please.
Response line: 1

Prompt line: Now try NC12CC3CC(CC(C3)C1)C2 [amantadine] .
Response line: 0

Prompt line: Also need COc1ncc2cc(C(=O)Nc3cc(C(=O)NCc4cccc(Cl)c4)ccc3Cl)c(=O)[nH]c2n1 , thanks.
Response line: 0

Prompt line: Also check CCCC(=O)Nc1ncnc2c1ncn2[C@@H]1O[C@@H]2COP(=O)(O)O[C@H]2[C@H]1OC(=O)CCC [Dibutyryl-cAMP, sodium salt]
Response line: 0

Prompt line: And for CN(C)CCCN1c2ccccc2Sc2ccc(Cl)cc21 [chlorpromazine] ?
Response line: 0

Prompt line: Quick one: O=C(COc1cccc2c(=O)[nH]ccc12)c1ccccc1
Response line: 0

Prompt line: Try this compound too: Cc1ccc(NC(=O)c2cccc(C(C)(C)C#N)c2)cc1Nc1ccc2ncn(C)c(=O)c2c1
Response line: 1

Prompt line: Consider next the compound COc1ccc([C@@H]2CC(=O)c3c(O)cc(O[C@@H]4O[C@H](CO[C@@H]5O[C@@H](C)[C@H](O)[C@@H](O)[C@H]5O)[C@@H](O)[C@H](O)[C@H]4O)cc3O2)cc1O [Hesperidin] in the same way.
Response line: 0

Prompt line: What do you get for CCOC(=O)Nc1ccc2c(c1)N(C(=O)CCN1CCOCC1)c1ccccc1S2 [moracizine] ?
Response line: 0

Prompt line: Same again, this time with C/C(=C/c1ccc(C(=O)O)cc1)c1ccc2c(c1)C(C)(C)CCC2(C)C
Response line: 1

Prompt line: Consider next the compound Nc1nnc2[nH]c3ccccc3nc1-2 in the same way.
Response line: 0
